protocol.details: Anti-proliferative activity against human OVTOKO cells assessed as cell viability incubated for 24 hrs by CCK-8 assay
Format: functional, cell-based

chem.smiles: Cc1cn(CCN2CCN(c3ccccc3-c3cc(C#N)cc(C(=O)NCCCN4CCCC4)c3)CC2)c2ccccc12
IC50: 950 nM
